The origin of these recorded values is the RNAGym collection of RNA variant scans (doi:10.1073/pnas.2313332121).

B1: TPR t1 (parent)
chain: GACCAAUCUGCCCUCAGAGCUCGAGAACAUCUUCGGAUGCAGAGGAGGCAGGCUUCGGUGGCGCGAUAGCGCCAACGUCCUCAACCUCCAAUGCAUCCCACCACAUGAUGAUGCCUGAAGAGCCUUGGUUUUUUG

- Variants of: B1
- experiment_summary: polymerase ribozyme fitness, log enrichment relative to wild type (log ratio); higher = more active; in vitro selection for triplet polymerase activity
Kindly supply the reported polymerase ribozyme fitness (log ratio) values for the records listed here.
Give bare numbers.

>>> endpoint_result("GACCAAUCUGCCCUCAGAGCUCGAGAACAUCUUCGGGUGCAGAGGAGGCAGGCUUCGGUGGCGCGAUAGCGCCAACGUCCUCAACCUCCAAUGCAUCCCACCAUAUGAUGAUACCUGAAGAGCCUUGGUGUUUUG")
-1.23

Provide reported polymerase ribozyme fitness (log ratio) for each item, in the same order as listed.
1. GACCAAUUUGCCCUCAGAGCUCGAGAACAUCUUCGGAUGCAGAGGAGGCAGGCUUCGGUGGCGCGAUAGCGCCAACGUCCUCAACCUCCAAUCCAUCCCACCACAUGAUGAUGCCUGAAGAGCCUUGGUUUUUUG
2. GACCAAUCUGCCCUCAGAGCUCGGGAACAUCUUCGGAUGCAGAGGAGGCAGGCUUCGGUGGCGCGAUAGCGCCAACGUCCUCAACCGCCAAUGCAUCCCACCACAUGAUGAUGCCUGAAGAGCCUUGGUUUUUUG

Response:
1. 0.0241
2. -2.03

Prompt: Find the recorded polymerase ribozyme fitness (log ratio) belonging to `GACCAAUCUGCCCUCAGAGCUCGAGAACAUCUUCGGAUGCAGAGGAGGCAGGCUUCGGUGGCACGAUAGCGCCAACGUACUCAACCUCCAAUGCAUCCCACCACAUGAUGAUGCCUGAAGAGCCUUGCUUUUUUG` and report it.
Response: -4.78
